# Tgt: human AMPA receptors
# Construct: assay details only in supplement
# Method: radioligand receptor binding assay (details in supplement)
# Recorded conditions: labelled compound; noncompetitive (perampanel derivative); subunit not told
pKd: −log10 of the molar value.
Property measured: pKd

Query :: Recall and state the measured pKd for CNc1cccc(-n2cc(-c3ncccn3)cc(-c3ccccc3C#N)c2=O)c1 [[11C]HMS011] .
Result :: ~7.82
